Data provenance is PubChem BioAssay (NCI).

Test system: NCI-H460 lung
RUN DESCRIPTION: NCI-60 one-dose screen, 48 h
STATED CONDITIONS: 10 µM
Compounds without any hit were thinned out: in the full panel of roughly 83,000, 20% have a hit. Active and inactive are the calls of the source. Rule for the calls: active = growth percent below 10; inactive = the rest.
Entry note: the call must match one of active, inactive

MOLECULE	ASSIGNED LABEL
COc1cc(/C=C2\CCCC3=C2N=C2SC=NN2C3c2cc(OC)c(OC)c(OC)c2)cc(OC)c1OC (centres undefined)	active
O=S(=O)(NCCCNc1nccc(-c2c(-c3ccc(F)cc3)nc3sccn23)n1)c1ccc2ccccc2c1	inactive
CN1CCCNc2c(c(=O)c2=O)NCCCN(C)CCCNc2c(c(=O)c2=O)NCCCN(C)CCCNc2c(c(=O)c2=O)NCCCN(C)CCCNc2c(c(=O)c2=O)NCCCN(C)CCCNc2c(c(=O)c2=O)NCCCN(C)CCCNc2c(c(=O)c2=O)NCCCN(C)CCCNc2c(c(=O)c2=O)NCCC1	inactive

// next entry
QUERY: Please state the recorded outcome for this molecule: S=c1[nH]ccn1-c1c(Cl)cccc1Cl
RESULT: inactive
